Values from patent US20250011363A1

Target: acetylcholine receptor
Test: SPR, AchR on chip, peptide 10 uM
The binders listed here are annotated with their Binding affinity (RU).

{"Binder": "KRYQR [5mer-199]", "Binding affinity (RU)": 84}
{"Binder": "RWIYR [5mer-201]", "Binding affinity (RU)": 62}
{"Binder": "KRVCK [5mer-318]", "Binding affinity (RU)": 64}
{"Binder": "RQQRR [5mer-345]", "Binding affinity (RU)": 86}
{"Binder": "KGYLR [5mer-27]", "Binding affinity (RU)": 67}
{"Binder": "RGRYK [5mer-20]", "Binding affinity (RU)": 78}
{"Binder": "KQFQK [5mer-523]", "Binding affinity (RU)": 84}
{"Binder": "KRQSR [5mer-531]", "Binding affinity (RU)": 65}
{"Binder": "KGRSR [5mer-337]", "Binding affinity (RU)": 67}
{"Binder": "KLQLR [5mer-206]", "Binding affinity (RU)": 57}
{"Binder": "RQLSR [5mer-32]", "Binding affinity (RU)": 75}
{"Binder": "RVFQR [5mer-45]", "Binding affinity (RU)": 86}
{"Binder": "RWQYK [5mer-35]", "Binding affinity (RU)": 80}
{"Binder": "RVLLK [5mer-520]", "Binding affinity (RU)": 86}
{"Binder": "KGYSK [5mer-235]", "Binding affinity (RU)": 70}
{"Binder": "KRISR [5mer-2]", "Binding affinity (RU)": 80}
{"Binder": "RSLSR [5mer-321]", "Binding affinity (RU)": 68}
